In this section we review reported protein stability index values for a set of variants.
B1: USP39 (parent)
chain: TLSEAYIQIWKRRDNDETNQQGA

Variants of: B1
RUN DESCRIPTION: protein stability index of a GFP-peptide fusion (GPS, HEK-293T) (PSI 1-6); higher = more stable;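 also: lentivirally expressed fusions sorted by FACS into six bins by GFP to DsRed ratio, PSI derived from sequencing read proportions per bin multiplied by bin number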
RECORDED CONDITIONS: c terminus: native
The reply should be a number, written without any unit.

TLSEAYIQIWKRRYNDETNQQGA [D14Y]	1.9
TLSEAYIQIWKRSDNDETNQQGA [R13S]	2.07
TLYEAYIQIWKRRDNDETNQQGA [S3Y]	1.98
TLSEAYIQIWFRRDNDETNQQGA [K11F]	2.04
TLSEPYIQIWKRRDNDETNQQGA [A5P]	3.69

// below: protein stability index requested for another variant
Query string: What value of measured protein stability index is listed for TLSEAYIQIWKRRDNDETNQQGH [A23H] ?
Result string: 4.18
